# test details: aqueous solubility
# Format: physicochemical
# setup conditions: aqueous solution, pH 11, aqueous buffer
attribute measured: solubility (µM)
Respond with the bare value in µM.

## Input Entry `COc1cc2c(cc1-c1c(C)noc1C)[nH]c1nc(C)nc(Nc3cc(C4CC4)nn3C)c12` has what solubility?
## Output 14

Taken from paper PMC6489120.
